Tested on: mutated ecdysone receptor-based gene switch
Protocol Text: In vivo SEAP induction, ligand by IP injection
Parameters: species or system C57BL/6 mouse
Experimental Setup: IP 26 nmol ligand, day 3
Experimental: Applicants' ligands are useful in various applications including gene therapy, expression of proteins of interest in host cells, production of transgenic organisms, and cell-based assays. In vivo induction of a reporter enzyme with various ligands of the present invention was evaluated in a C57BL/6 mouse model system containing a gene switch. Each element of the gene switch was on a separate plasmid. […] Induction was evaluated by the amount of reporter protein expressed in the presence of ligand. […]
# Secreted Alkaline Phosphatase Day 3 listing for each entry below

Molecule	Measured Target	Secreted Alkaline Phosphatase Day 3
CCC(N(NC(=O)c1ccc2c(c1C)OCCO2)C(=O)c1cc(OC)c(C)c(OC)c1)C(C)(C)C (stereo not drawn)	mutated ecdysone receptor-based gene switch	401 ng/ml mouse sera
CCC(N(NC(=O)c1ccc2c(c1C)OCCO2)C(=O)c1cc(C)cc(C)c1)C(C)(C)C (stereo not drawn)	mutated ecdysone receptor-based gene switch	2,350 ng/ml mouse sera
CCCC(N(NC(=O)c1ccc2c(c1C)OCCO2)C(=O)c1cc(C)cc(C)c1)C(C)(C)C (stereo not drawn)	mutated ecdysone receptor-based gene switch	5,652 ng/ml mouse sera
CCCC(N(NC(=O)c1cccc(OC)c1CC)C(=O)c1cc(C)cc(C)c1)C(C)(C)C (stereo not drawn)	mutated ecdysone receptor-based gene switch	5,339 ng/ml mouse sera
CCC(N(NC(=O)c1cccc(C)c1C)C(=O)c1cc(C)cc(C)c1)C(C)(C)C (stereo not drawn)	mutated ecdysone receptor-based gene switch	2,800 ng/ml mouse sera
CCc1c(C(=O)NN(C(=O)c2cc(C)cc(C)c2)C(CC)C(C)(C)C)ccc2c1OCCO2 (stereo not drawn)	mutated ecdysone receptor-based gene switch	11,820 ng/ml mouse sera
CCCC(N(NC(=O)c1cccc(OC)c1C)C(=O)c1cc(C)cc(C)c1)C(C)(C)C (stereo not drawn)	mutated ecdysone receptor-based gene switch	2,705 ng/ml mouse sera
CCc1c(OC)cccc1C(=O)NN(C(=O)c1cc(C)cc(C)c1)C(CC)C(C)(C)C (stereo not drawn)	mutated ecdysone receptor-based gene switch	1,807 ng/ml mouse sera
CCC(N(NC(=O)c1cccc(OC)c1C)C(=O)c1cc(C)cc(C)c1)C(C)(C)C (stereo not drawn)	mutated ecdysone receptor-based gene switch	4,096 ng/ml mouse sera
